Below is a list of entries, each paired with its recorded IC50 value.
molecular target: CSNK1A1 (Homo sapiens (Human), UniProt P48729); test: CSNK1A1 Assay 2 (ADP-Glo, 1 μM ATP, substrate biotin-Ahx-KRRRAL-pS-VASLPGL); format: biochemical; settings: median, read-out: CSNK1A1 Assay 2 IC50 [mol/l] (median)
Sequence (P48729 whole entry): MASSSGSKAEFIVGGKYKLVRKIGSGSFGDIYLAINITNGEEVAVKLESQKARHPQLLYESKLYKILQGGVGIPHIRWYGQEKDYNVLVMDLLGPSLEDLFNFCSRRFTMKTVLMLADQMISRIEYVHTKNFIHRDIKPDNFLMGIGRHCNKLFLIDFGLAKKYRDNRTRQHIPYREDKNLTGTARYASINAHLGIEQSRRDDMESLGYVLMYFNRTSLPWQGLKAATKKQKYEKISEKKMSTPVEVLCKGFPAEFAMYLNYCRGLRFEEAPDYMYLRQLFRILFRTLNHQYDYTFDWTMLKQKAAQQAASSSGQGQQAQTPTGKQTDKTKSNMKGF
MEASURED ENDPOINT: IC50 (nM)

# COMPOUND, MEASURED ENDPOINT, RESULT NUMBER
data = [
    ("COCCC(C(=O)Nc1cc(-c2[nH]c3cccnc3c2-c2ccccn2)ccn1)c1ccc(F)cc1 (racemic) [Example 44]", "IC50", 4.97),
    ("O=C(Cc1ccc(F)cc1)Nc1cc(-c2[nH]c3cccnc3c2-c2ncccn2)ccn1 [Example 51]", "IC50", 7.93),
    ("O=C(Cc1ccc(F)cc1)Nc1cc(-c2[nH]c3ccnnc3c2-c2ccccn2)ccn1 [Example 21]", "IC50", 1.66),
    ("O=C(Cc1ccc(F)cc1)Nc1cc(-c2[nH]c3ccc(F)nc3c2-c2ccccn2)ccn1 [Example 4]", "IC50", 0.739),
    ("CC(C)C(C(=O)Nc1cc(-c2[nH]c3ccc(F)nc3c2-c2ccccn2)ccn1)c1ccc(F)cc1 (single isomer, unassigned; (-)) [Example 25]", "IC50", 23.9),
    ("O=C(Cc1ccc(F)cc1)Nc1cc(-c2[nH]c3c(C4CC4)ccnc3c2-c2ccccn2)ccn1 [Example 35]", "IC50", 2.79),
    ("COCC(C(=O)Nc1cc(-c2[nH]c3cccnc3c2-c2ccccn2)ccn1)c1ccc(F)cc1 (racemic) [Example 43]", "IC50", 3.51),
    ("CN1CCC(N(C)c2ccnc3c(-c4ccccn4)c(-c4ccnc(NC(=O)Cc5ccc(F)cc5)c4)[nH]c23)CC1 [Example 39]", "IC50", 3.49),
]

====

target: CSNK1A1 (Homo sapiens (Human), UniProt P48729); experiment: CSNK1A1 High ATP Assay (ADP-Glo, 1 mM ATP); format: biochemical; conditions: median, read-out: CSNK1A1 high ATP assay IC50 [mol/l] (median)
pIC50: −log10 of the molar value.

# COMPOUND, pIC50
rows = [
    ("Cc1cc2[nH]c(-c3ccnc(NC(=O)C(C)c4ccc(F)cc4)c3)c(-c3ccccn3)c2nc1F (single isomer, unassigned; (+)) [Example 29]", 5.94),
    ("CC(C(=O)Nc1cc(-c2[nH]c3ccc(F)nc3c2-c2ccccn2)ccn1)c1ccc(F)cc1 (single isomer, unassigned; (+)) [Example 3]", 7.92),
    ("O=C(Cc1ccc(F)cc1)Nc1cc(-c2[nH]c3cc(F)cnc3c2-c2ccccn2)ccn1 [Example 9]", 7.47),
    ("CC(C)C(C(=O)Nc1cc(-c2[nH]c3ccc(F)nc3c2-c2ccccn2)ccn1)c1ccc(F)cc1 (single isomer, unassigned; (+)) [Example 26]", 7.31),
    ("O=C(Cc1ccc(F)cc1)Nc1cc(-c2[nH]c3c(N4CCCC4=O)ccnc3c2-c2ccccn2)ccn1 [Example 40]", 7.52),
    ("CC(C(=O)Nc1cc(-c2[nH]c3ccc(F)nc3c2-c2ccc(F)cn2)ccn1)c1ccc(F)cc1 (single isomer, unassigned; (+)) [Example 48]", 7.44),
    ("CN1CCC(N(C)c2ccnc3c(-c4ccccn4)c(-c4ccnc(NC(=O)Cc5ccc(F)cc5)c4)[nH]c23)CC1 [Example 39]", 7.48),
    ("O=C(Cc1ccc(F)cc1)Nc1cc(-c2[nH]c3c(C4CC4)ccnc3c2-c2ccccn2)ccn1 [Example 35]", 8.19),
    ("COc1ccc2[nH]c(-c3ccnc(NC(=O)Cc4ccc(F)cc4)c3)c(-c3ccccn3)c2n1 [Example 32]", 7.63),
    ("CC(C(=O)Nc1cc(-c2[nH]c3ccc(F)nc3c2-c2ccccn2)ccn1)c1ccc(F)cc1 (single isomer, unassigned; (-)) [Example 2]", 6.05),
    ("O=C(Cc1ccc(Cl)cc1)Nc1cc(-c2[nH]c3cccnc3c2-c2ccccn2)ccn1 [Example 42]", 8.15),
]
